Reference source: ChEMBL document CHEMBL3433997

# testTarget: Glucose transporter (Leishmania mexicana) (UniProt O61059)
# protocolDetails: ST_JUDE_LEISH: Cytotoxicity at 2uM final concentration against transgenic Leishmania Mexicana promastigotes LmGT2 that are glucose transport deficient and complemented with the L. Mexicana glucose transporter 2. Activity is measured by DNA content using SYBR green in vitro
# Format: functional
inhibition overview

| compound | testTarget | inhibition / % |
| --- | --- | --- |
| CCC[C@@H]([C@@H](CC1CCCCC1)C(=O)N[C@H](C(=O)Nc1nccs1)[C@H](C)O)N(O)C=O | Glucose transporter (Leishmania mexicana) (UniProt O61059) | 2.03 |
| COCCCNc1nc2cc(OC)c(OC)cc2c2nc(-c3ccccc3)nn12 | Glucose transporter (Leishmania mexicana) (UniProt O61059) | 0.85 |
| O=[N+]([O-])c1cccc(C(Nc2ccccn2)c2ccc3cccnc3c2O)c1 (stereo not drawn) | Glucose transporter (Leishmania mexicana) (UniProt O61059) | 4.17 |
| NS(=O)(=O)c1ccc(Nc2nccc(-c3c(-c4cccc(NC(=O)c5c(F)cccc5F)c4)nn4ccccc34)n2)cc1 | Glucose transporter (Leishmania mexicana) (UniProt O61059) | 8.76 |
| O=C(NCCc1ccc(Cl)c(Cl)c1)C1CCCN(C(=O)c2ccc(O)c(-c3ccc(Cl)c(Cl)c3)c2)C1 (stereo not drawn) | Glucose transporter (Leishmania mexicana) (UniProt O61059) | 4.3 |
| CCN(CC1CCN(CC2(O)CCOCC2)CC1)c1cc(C)nc(Nc2ccc(Cl)cc2)n1 | Glucose transporter (Leishmania mexicana) (UniProt O61059) | -0.02 |
| CCCC(C)Nc1nc(C)cc(N[C@@H](Cc2ccccc2)C(=O)NCc2cccc(F)c2)n1 (stereo partly drawn) | Glucose transporter (Leishmania mexicana) (UniProt O61059) | 2.68 |
| COc1ccc(-c2ccccc2CNC2Cc3ccccc3C2)cc1S(=O)(=O)NCCN1CCCC1 | Glucose transporter (Leishmania mexicana) (UniProt O61059) | 2.53 |
| CCCN1CCC(NCc2cn(C)nc2-c2ccc(Oc3ccccc3)cc2)CC1 | Glucose transporter (Leishmania mexicana) (UniProt O61059) | 11.5 |
| N#Cc1ccc(-c2cnc3ccc(NCCc4cccnc4)nn23)cc1 | Glucose transporter (Leishmania mexicana) (UniProt O61059) | 0.25 |
| Cc1cccc(C)c1N1CCN(C2CCC(NC(=O)c3cc4ccccc4[nH]3)CC2)CC1 (stereo not drawn) | Glucose transporter (Leishmania mexicana) (UniProt O61059) | -0.14 |
| CC(=O)Nc1ccc(OCCCCN(Cc2ccccc2C(F)(F)F)c2ccc(C(F)(F)F)c(C#N)c2)c(Cl)c1 | Glucose transporter (Leishmania mexicana) (UniProt O61059) | 0.64 |
| COc1ccc(C(=O)NCC(C)(C)c2nc(-c3ccc(Cl)c(O)c3)c(-c3ccncc3)[nH]2)cc1OCCN(C(C)C)C(C)C | Glucose transporter (Leishmania mexicana) (UniProt O61059) | -1.98 |
| COc1ccc2c(NN=Cc3cccc(Cl)c3)ccnc2c1 | Glucose transporter (Leishmania mexicana) (UniProt O61059) | -0.9 |
| N#Cc1ccc(CN2CCC(NC(=O)c3ccc(-c4nnc(-c5cccc6ccccc56)o4)cc3)CC2)cc1 | Glucose transporter (Leishmania mexicana) (UniProt O61059) | -1.38 |
| Clc1ccc(CNc2ccnc(NCc3ccc4c(c3)OCCCO4)n2)c(Cl)c1 | Glucose transporter (Leishmania mexicana) (UniProt O61059) | 3.69 |
| O=C(NCCSCc1c(F)cccc1Cl)c1cnc2c(c1)nc(-c1c[nH]c(-c3ccccc3)n1)n2CCc1c[nH]cn1 | Glucose transporter (Leishmania mexicana) (UniProt O61059) | 0.97 |
| Cc1ccc(O)cc1Nc1ccnc2ccc(-c3csc(CNCCN4CCOCC4)n3)cc12 | Glucose transporter (Leishmania mexicana) (UniProt O61059) | 1.59 |
